System: LOX IMVI melanoma
Assay: NCI tumour cell line growth inhibition, 48 h
// values below are reported TGI

Observe how each entry below is paired with its result.
>  <COMPOUND>
COc1cc(C(=O)C/C(CCCC(=O)Nc2ccccc2[N+](=O)[O-])=N/NC(=O)c2cc3ccccc3cc2O)ccc1O

>  <RESULT>
> 65.4 µM

$$$$
>  <COMPOUND>
CCCC1(NC(=O)C(F)(F)F)CC(OC)OC2COC(c3ccccc3)OC21 (stereo not given)

>  <RESULT>
> 100 µM

$$$$

What value of measured TGI is listed for `CCCNC1=C(C(=O)OCC)C(=O)CO1` ? > 100 µM

What measured TGI goes with `COc1ccc2oc(=N)c(C(=O)NCc3ccccc3)cc2c1` ? > 100 µM

Entry CCCCCCCCCCC(C(=O)O)C1(C(=O)O)CCC(=O)O1 (stereo not given) : reported TGI = ? > 100 µM
